B1: Gamma-crystallin C, residues 4 to 79; numbered along this chain, P07315 (parent)
chain: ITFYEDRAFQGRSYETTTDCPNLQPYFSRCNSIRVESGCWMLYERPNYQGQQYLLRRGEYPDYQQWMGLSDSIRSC

- Variants of: B1
- assayProcedure: abundance fitness (aPCA) (normalised: wild type 0, dead -1); higher = more abundant; growth selection in yeast, the domain comes from the species named
- conditionsUsed: Homo sapiens
// class assignment uses abundance fitness with these ranges: 1: < -0.1; 2: ≥ -0.1 and < -0.01; 3: ≥ -0.01

Consider the worked cases shown below.
In: Determine which band this variant sits in: T16P
Out: 1

In: The entry to classify is L54R ; which class holds it?
Out: 1

In: Given R29S , name the class its abundance fitness places it in.
Out: 3

In: Categorize the following entry: T17N
Out: 1

In: Which bin should I file M41N under?
Out: 1

Others:
In: Given E36N , name the class its abundance fitness places it in.
Out: 3

In: Just checking, what class would you give T17M here?
Out: 1

In: Determine which band this variant sits in: P25D
Out: 3

In: Hello team, could you let me know which band the following variant falls into: R45P
Out: 1

In: Kindly state the category for this variant: R45M
Out: 3

In: Given E5G , name the class its abundance fitness places it in.
Out: 1

In: For M67T , which abundance fitness bin applies?
Out: 2

In: Quick check: band for T2A
Out: 1

In: Please let me know in which category the item E15G belongs.
Out: 2

In: Pick a category. Item: D71H
Out: 2

In: Into which category would you place G38D ?
Out: 3

In: Dear colleague, I would appreciate it if you could identify the bin for L69I and reply at your convenience.
Out: 1

In: For this variant, which bin applies? S70T
Out: 2

In: Which abundance fitness category applies to L55G here?
Out: 1

In: Consider L23E . To which abundance fitness class does it belong?
Out: 1
